# MEASURED_TARGET: Recombinant Human DLL4 (delta-like protein 4) (human) (UniProt Q9NR61)
# TEST_METHOD_NOTES: ELISA, DLL4 coated on plate, Fab at 12.5 nM (2-fold dilution series), absorbance at 450 nm
Each entry below carries its reported ELISA signal.
Please reply with the number alone, leaving off any unit.

# example entries with known answers
Fab VH5-51_IGHD5-18*01>3_IGHJ4*01 G100K/G104T G24L/S28R/G35V Y105H & V3-4_IGLJ1*01 (wildtype) (Fab, V domains shown) VH: EVQLVQSGAEVKKPGESLKISCKTSGYRFTSYWIVWVRQMPGKGLEWMGIIYPGDSDTRYSPSFQGQVTISADKSISTAYLQWSSLKASDTAMYYCARRKYSYTHDYFDYWGQGTLVTVSS VL: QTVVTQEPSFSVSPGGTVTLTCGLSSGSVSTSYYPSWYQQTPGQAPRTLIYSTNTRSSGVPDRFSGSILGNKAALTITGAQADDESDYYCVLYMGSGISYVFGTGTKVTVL: 0.21
Fab VH5-51_IGHD5-18*01>3_IGHJ4*01 G100K/G104T G24T/S28R/G35V Y105N & V3-4_IGLJ1*01 (wildtype) (Fab, V domains shown) VH: EVQLVQSGAEVKKPGESLKISCKTSGYRFTSYWIVWVRQMPGKGLEWMGIIYPGDSDTRYSPSFQGQVTISADKSISTAYLQWSSLKASDTAMYYCARRKYSYTNDYFDYWGQGTLVTVSS VL: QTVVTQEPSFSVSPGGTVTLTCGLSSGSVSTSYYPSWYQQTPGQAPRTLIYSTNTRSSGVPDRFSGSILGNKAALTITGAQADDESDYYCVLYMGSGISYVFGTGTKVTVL: 0.21
Fab VH5-51_IGHD5-18*01>3_IGHJ4*01 G100K/G104T G24L/S28R/G35V D109Q & V3-4_IGLJ1*01 (wildtype) (Fab, V domains shown) VH: EVQLVQSGAEVKKPGESLKISCKTSGYRFTSYWIVWVRQMPGKGLEWMGIIYPGDSDTRYSPSFQGQVTISADKSISTAYLQWSSLKASDTAMYYCARRKYSYTYDYFQYWGQGTLVTVSS VL: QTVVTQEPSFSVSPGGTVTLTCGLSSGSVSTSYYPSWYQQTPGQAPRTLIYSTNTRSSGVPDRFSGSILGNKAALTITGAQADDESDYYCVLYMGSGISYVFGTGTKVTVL: 0.24

API: the following record is the query input.
Give ELISA signal for Fab VH5-51_IGHD5-18*01>3_IGHJ4*01 G100K/G104T G24A/S28R/G35V Y107F & V3-4_IGLJ1*01 (wildtype) (Fab, V domains shown) VH: EVQLVQSGAEVKKPGESLKISCKTSGYRFTSYWIVWVRQMPGKGLEWMGIIYPGDSDTRYSPSFQGQVTISADKSISTAYLQWSSLKASDTAMYYCARRKYSYTYDFFDYWGQGTLVTVSS VL: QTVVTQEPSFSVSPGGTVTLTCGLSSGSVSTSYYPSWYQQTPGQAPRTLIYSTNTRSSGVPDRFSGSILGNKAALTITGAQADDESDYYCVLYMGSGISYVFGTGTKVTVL
0.21
